# study.target: SARS-CoV-2 receptor-binding domain (RBD), wild type (SARS-CoV-2, UniProt P0DTC2 331-527)
# test.details: BLI
For each record, write down the corresponding log10 Kd.
Please be aware that the numbers have been log10-transformed from Kd in nM.

Request: Would you kindly share the measured log10 Kd for WNb 19 (VHH) VHH: QVQLQESGGGLVQPGGSLRLSCAASGSMFSINVMGWYRQASGKQRELVAGITRDGATNYSDSVKGRFTISGDNAKNTVYLQMNSLKPEDTAVYYCNTNVDSVWGSRIDYFGQGTQVTVSS ?
Response: -0.34

Request: Would you kindly share the measured log10 Kd for WNb 2 (VHH) VHH: QVQLQESGGGLVQPGGSLRLSCAVSGFTLDYYAIGWFRQAPGKEREGVSCISSSGGNTKYADSVKGRFTASRDNAKNTFYLQMNSLKPEDTAVYYCAAIAATYYSGSYYFQCPHDGMDYWGKGTQVTVSS ?
Response: -0.44

Request: Would you kindly share the measured log10 Kd for WNb 23 (VHH) VHH: QVQLQESGGGLVQPGGSLRLSCAASGFTFKDYAMAWARQVPGKGLEWVSGIYSDGNTYYADSVKGRFTISRDNAKNTVYLRMNSLKPEDTAVYYCATERHPQGAADFGSWGQGTQVTVSS ?
Response: 0.96

Request: Would you kindly share the measured log10 Kd for WNb 7 (VHH) VHH: QVQLQESGGGLVQPGGSLRLSCAAPGFTFSSYAMGWFRQVPGKGLEWVSGIYSDGSTYYADSVKGRFTISRDNAKNTVYLQMNSLKPEDTAVYYCAKDRLEGSSWPERDFGSWGQGTQVTVSS ?
Response: -0.59

Request: Would you kindly share the measured log10 Kd for WNb 15 (VHH) VHH: QVQLQESGGGLVQPGGSLRLSCAASGFTFSSYLMGWFRQVPGKGLEWVSGIYSDGGTYYADSVKGRFTISRDNAKNTVYLQMNSLKPEDTAVYYCATDRMEGSSWPERDFGSWGQGTQVTVSS ?
Response: -0.85

Request: Would you kindly share the measured log10 Kd for WNb 10 (VHH) VHH: QVQLQESGGGLVQPGGSLRLSCAASGFTFRRYLMGWARQVPGKGLEWVSGIYSDGSTYYADSVKGRFTISRDNAKNTVYLQMNSLKPEDTAVYYCAKDRMDGSTWPERDFGSWGQGTQVTVSS ?
Response: -0.17

Request: Would you kindly share the measured log10 Kd for WNbFc 36 (Fc fusion) QVQLQESGGGLVQPGGSLRLSCAVSGFTLDYYAIGWFRQAPGKEREGVSCISNSGGNTKYADSVKGRFTTSVDNAQNTVYLLMNSLEPEDTAVYYCAAIAATYYSGTYYYQCPHYGMDYWGKGTQVTVSS ?
Response: -0.44

Request: Would you kindly share the measured log10 Kd for WNb 36 (VHH) VHH: QVQLQESGGGLVQPGGSLRLSCAVSGFTLDYYAIGWFRQAPGKEREGVSCISNSGGNTKYADSVKGRFTTSVDNAQNTVYLLMNSLEPEDTAVYYCAAIAATYYSGTYYYQCPHYGMDYWGKGTQVTVSS ?
Response: -0.37
